All figures here come from ChEMBL document CHEMBL3988442.

Test system: Plasmodium falciparum
Assay: Plasmodium falciparum sporozoite viability assay; note: in the data most compounds retested in dose-response had high values
Format: functional, organism-based
Among all 34,000 compounds or so, about 290 (0.85%) showed an effect of 50% or more. This is one part of a sample in which strong results are shown more often than they occur.
# Percent Effect values compiled below
// units = %; emit number, no label

Some entries whose results are on file:
compound: CN1CCN(C(=O)[C@H]2CC[C@@H]3[C@@H](CCN3Cc3nccs3)O2)CC1
measurement.kind: Percent Effect
readout.number: -3.61
--
compound: Cc1cc(C)n(CC2CN(Cc3ccccn3)CCO2)n1 (centres undefined)
measurement.kind: Percent Effect
readout.number: 1.241
--
compound: CN(C)c1ccc(CC2COCCN(Cc3nccn3C)C2)nn1 (centres undefined)
measurement.kind: Percent Effect
readout.number: -1.339
--
compound: CC(C)NC(=O)c1csc(NC2CC2)n1
measurement.kind: Percent Effect
readout.number: -5.904
--
compound: Cc1cnn(CC2CN(Cc3nc4ccccc4nc3C)CCO2)c1 (centres undefined)
measurement.kind: Percent Effect
readout.number: -7.63

Attention now shifts to the item below.
Input line: Value lookup for Percent Effect; key = NC(=O)c1ccc(CN2CCCC(O)C2)cc1 (centres undefined)
Output line: -1.578

###

# Percent Effect values compiled below
Test system: Plasmodium falciparum
Experiment: Plasmodium falciparum sporozoite viability assay; note: in the data most compounds retested in dose-response had high values
Format: functional, organism-based
About 290 (0.85%) of roughly 34,000 compounds showed an effect of 50% or more. What follows is part of a selection rich in strong results, with near analogues and random picks from the rest.
Could you write the number and then its unit?

Some entries whose results are on file:
compound: CC(C)C(=O)N(C)CC(=O)Nc1ccc(Br)cn1
measured.target: Plasmodium falciparum
Percent Effect: 14%

compound: Cl.Cl.Cn1nc(C2CNCCO2)cc1CCOc1ccc(Cl)cc1 (centres undefined)
measured.target: Plasmodium falciparum
Percent Effect: -1.356%

compound: O=C(NCCc1ccccc1)c1cccc(S(=O)(=O)NC2CCOC2)c1 (centres undefined)
measured.target: Plasmodium falciparum
Percent Effect: -7.302%

Input line: Value lookup for Percent Effect; key = `CCCc1cc(NC(=O)c2cc(N3CCNC3=O)c(F)cc2F)n[nH]1`
Output line: -27.19%

Input line: Value lookup for Percent Effect; key = O=C(CCc1ccsc1)Nc1ccnn1C1CCS(=O)(=O)C1 (centres undefined)
Output line: -2.999%

Input line: Value lookup for Percent Effect; key = `CCc1cnc(N2CCc3cc(C(=O)NC)c(N(C)C)nc3CC2)nc1.O=C(O)C(F)(F)F`
Output line: 0.8439%

Input line: Value lookup for Percent Effect; key = `O=C(CO)N1CCC(CCc2ccnc(Nc3cnccn3)c2)CC1`
Output line: -3.121%

Input line: Value lookup for Percent Effect; key = `CN1CCC(CCc2ccnc(Nc3cnccn3)c2)CC1`
Output line: -4.215%

Input line: Value lookup for Percent Effect; key = CC(CCc1ccccc1)N1CCC(C(=O)Nc2cnccn2)CC1 (centres undefined)
Output line: -2.997%

Input line: Value lookup for Percent Effect; key = CCC(=O)N1CCC(Cc2ccccc2-c2cccc(C)c2)(C(N)=O)C1 (centres undefined)
Output line: 2.181%

Input line: Value lookup for Percent Effect; key = `Cl.Cl.O=C([C@H]1CCCN1)N1CC2(CCNCC2)c2cc(Cl)ccc21`
Output line: 12.41%

Input line: Value lookup for Percent Effect; key = `CSc1nccc(N2CCC(NCc3ccc4c(c3)OCO4)CC2)n1`
Output line: 4.585%

Input line: Value lookup for Percent Effect; key = CN(C)C(=O)CN1CCCC1c1nccnc1Nc1ccccn1 (centres undefined)
Output line: -3.467%

Input line: Value lookup for Percent Effect; key = `Cc1cc(C)nc(N2CCC(CNC(=O)c3ccccn3)CC2)n1`
Output line: 1.904%

Input line: Value lookup for Percent Effect; key = Cc1cnn(CC2CN(Cc3ccccn3)CCO2)c1 (centres undefined)
Output line: -1.077%

Input line: Value lookup for Percent Effect; key = Cc1ccc(C(=O)NCC(O)c2cccc(F)c2)c(=O)[nH]1 (centres undefined)
Output line: -4.578%

Input line: Value lookup for Percent Effect; key = Fc1cccc(Cc2cncc(C3CCCN3C3CCOCC3)n2)c1 (centres undefined)
Output line: -10.3%

Input line: Value lookup for Percent Effect; key = Nc1ncc(-c2ccc(Cl)cc2)c(C2CCCNC2)n1 (centres undefined)
Output line: 17.56%

Input line: Value lookup for Percent Effect; key = CC(C)c1n[nH]c(C2CN(C(=O)c3cc(C4CC4)on3)CCO2)n1 (centres undefined)
Output line: -9.758%

Input line: Value lookup for Percent Effect; key = `COc1c(CNCc2ccc3c(c2)OCCO3)c(C(C)C)nn1C`
Output line: 14.99%

Input line: Value lookup for Percent Effect; key = `Cc1ccsc1CNC(=O)c1ccc(N2CCNC2=O)cc1`
Output line: -9.9%

Input line: Value lookup for Percent Effect; key = CN(C)C(=O)c1sc2ncccc2c1C1CNCCO1.Cl (centres undefined)
Output line: -1.679%

Input line: Value lookup for Percent Effect; key = CNc1ccc(C2CN(c3cc(C)nc(N)n3)CCO2)nc1 (centres undefined)
Output line: 20.28%

Input line: Value lookup for Percent Effect; key = CC(=O)N1N=C(c2ccccc2)OC1C(=O)NCCc1ccc(C)cc1 (centres undefined)
Output line: -14.76%

###

# Percent Effect values compiled below
Test system: Plasmodium falciparum
Assay: Plasmodium falciparum sporozoite viability assay; note: in the data most compounds retested in dose-response had high values
Type: functional, organism-based
About 290 (0.85%) of roughly 34,000 compounds showed an effect of 50% or more. What follows is part of a selection rich in strong results, with near analogues and random picks from the rest.
// units = %; emit number, no label

Some entries whose results are on file:
compound: Cc1cccc(CN2CCC(c3csc4nccn34)CC2)n1.O=CO
uom: %
Percent Effect: 3.885
//
compound: O=C(C1CC1)N1CCc2nc(C3CCN(C(=O)C4CC4)C3)nc(O)c2C1 (stereo not drawn)
uom: %
Percent Effect: 2.355
//
compound: CCC(=O)NC1CCCN(C(=O)Nc2cccc(COC(C)C)c2)C1 (stereo not drawn)
uom: %
Percent Effect: 3.429
//
compound: Cc1cnccc1CN1Cc2ccccc2O[C@]2(CC[C@H](CO)CC2)C1
uom: %
Percent Effect: 13.72
//
compound: CCOc1ccnc(N[C@@H](Cc2ccccc2)C(N)=O)n1
uom: %
Percent Effect: 0.8772
//
compound: Cc1nn(C)cc1-c1cc(C(=O)NCC(C)(C)c2cccc(F)c2)n[nH]1
uom: %
Percent Effect: -0.9712
//
compound: Cc1cc(C)nc(Nc2nccnc2C2CCCN(CCO)C2)n1 (stereo not drawn)
uom: %
Percent Effect: -0.8244
//
compound: Cc1ncncc1-c1ccnc(NC(C)C)n1
uom: %
Percent Effect: -0.5927
//
compound: O=C(NCC1CCOC1)Nc1ccc(OCC(F)(F)F)nc1 (stereo not drawn)
uom: %
Percent Effect: -8.857
//
compound: CCOC(=O)CN1CCC2(CC1)CC(=O)c1ccc(OC)cc1O2
uom: %
Percent Effect: -0.03409

Input line: Value lookup for Percent Effect; key = Cc1cnc(CN(C)C2CCN(Cc3nnc(C4CC4)o3)C2)o1 (stereo not drawn)
Output line: 13.1

Input line: Value lookup for Percent Effect; key = COc1ccc(C2CNCCN2C(=O)c2cccc3ncccc23)cc1 (stereo not drawn)
Output line: 4.068

Input line: Value lookup for Percent Effect; key = `CC(=O)N1CC[C@H]2OCC[C@@]2(C(=O)NCCc2ccccn2)C1.O=C(O)C(F)(F)F`
Output line: -10.77

Input line: Value lookup for Percent Effect; key = `CC(C)N(C)[C@@H]1CCN(S(C)(=O)=O)[C@H]1Cc1ccccc1`
Output line: 3.466

Input line: Value lookup for Percent Effect; key = CC(=O)NC1CCCN(C(=O)Nc2cccnc2-n2cccn2)C1 (stereo not drawn)
Output line: -4.732

Input line: Value lookup for Percent Effect; key = Cn1ncc2ccc(C3CCCN(C(=O)Cc4cccs4)C3)nc21 (stereo not drawn)
Output line: 10.94

Input line: Value lookup for Percent Effect; key = `Cc1cc(CN2CCN(C(=O)CCCc3nc(C(C)C)no3)CC2)on1`
Output line: 13.41

Input line: Value lookup for Percent Effect; key = `O=S(=O)(c1ccccc1)N1CCC[C@]2(C[C@H](OCC3CC3)CO2)C1`
Output line: -0.3567

Input line: Value lookup for Percent Effect; key = COCCN1CCCC1c1ccnc(-c2ccccc2)n1 (stereo not drawn)
Output line: 6.777

Input line: Value lookup for Percent Effect; key = Cc1nc(C)c(CNC(=O)N2CCc3ccccc3C2CO)s1 (stereo not drawn)
Output line: -12.91

Input line: Value lookup for Percent Effect; key = `CNS(=O)(=O)Cc1cccc(CNC(=O)Nc2cn[nH]c2)c1`
Output line: 3.105

Input line: Value lookup for Percent Effect; key = `O=C(CCCc1nc(-c2ccccc2)no1)N1CCN(CCO)CC1`
Output line: 11.73

Input line: Value lookup for Percent Effect; key = `Cn1ccnc1C(=O)N[C@@H]1CN(Cc2ccoc2)[C@@H]2CCCO[C@@H]21.O=C(O)C(F)(F)F`
Output line: 4.904
